- ASSAY_SYSTEM: hCRTH2 receptor (Homo sapiens, UniProt Q9Y5Y4)
- Construct: expressed in transfected cells; host or cells: HEK293 (recombinant HEK293-hCRTH2), membrane fragments
- Sequence (Q9Y5Y4 whole entry, the tested form may be a part): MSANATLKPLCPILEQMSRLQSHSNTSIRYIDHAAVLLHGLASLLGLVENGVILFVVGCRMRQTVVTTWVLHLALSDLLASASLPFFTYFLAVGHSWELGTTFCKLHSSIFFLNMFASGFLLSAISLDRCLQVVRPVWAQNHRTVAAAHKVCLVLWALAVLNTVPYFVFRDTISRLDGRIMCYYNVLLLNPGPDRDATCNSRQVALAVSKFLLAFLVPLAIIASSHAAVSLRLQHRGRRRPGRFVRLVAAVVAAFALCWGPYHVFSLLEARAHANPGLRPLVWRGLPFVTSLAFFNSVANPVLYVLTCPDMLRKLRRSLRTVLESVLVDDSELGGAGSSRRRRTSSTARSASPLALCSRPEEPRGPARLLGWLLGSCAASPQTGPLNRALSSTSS
- ASSAY_DETAILS: Radioligand displacement assay in presence of human serum albumin (HSA)
- CONDITION_SUMMARY: displacement of 3H-PGD2, Binding-Buffer with 0.5% human serum albumin instead of 0.1% BSA
Criterion: IC50 strictly less than 4 nM. Met: Fulfilled. Not met: Not fulfilled.

- COMPOUND: "CN(c1ncc(Cl)cn1)[C@H]1CCc2c(c3nc(F)ccc3n2CC(=O)O)C1"
  CLASSIFICATION: "Not fulfilled"
- COMPOUND: "CN(c1ncc(Cl)cn1)C1CCc2c(c3nc(F)ccc3n2CC(=O)O)C1 (centres unmarked)"
  CLASSIFICATION: "Fulfilled"
- COMPOUND: "CN(c1ncc(Cl)cn1)C1CCc2c(c3nc(C(F)(F)F)ccc3n2CC(=O)O)C1 (centres unmarked)"
  CLASSIFICATION: "Not fulfilled"

Threshold test, IC50 < 4 nM: CN(c1ncc(Cl)cn1)[C@H]1CCc2c(c3ncccc3n2CC(=O)O)C1
Fulfilled

Also COc1ccc2c(n1)c1c(n2CC(=O)O)CCC(N(C)c2ncc(Cl)cn2)C1 (centres unmarked) , if possible.
Not fulfilled

Follow-up item: O=C(O)Cn1c2c(c3ncccc31)CC(Nc1ncc(Cl)cn1)CC2 (centres unmarked)
Not fulfilled

Next compound up: O=C(O)Cn1c2c(c3nc(F)ccc31)C[C@@H](Nc1ncc(Cl)cn1)CC2
Not fulfilled

* * *

Catalogue of NoEC (no effect concentration) values
- System: primary cultured rat hepatocytes
- ASSAY_DETAILS: In vitro cytotoxicity in primary cultured rat hepatocytes
- Format: cell-based
- CONDITION_SUMMARY: 24 h treatment, cell morphology and LDH leakage, highest test concentration 300 μM
Note: unit µM is implicit; provide only the numeric part.

// fetch primary cultured rat hepatocytes NoEC (no effect concentration) for CN(c1ncc(Cl)cn1)[C@H]1CCc2c(c3ncccc3n2CC(=O)O)C1 [drawing 32]
30

* * *

- System: primary cultured rat hepatocytes
- ASSAY_DETAILS: In vitro cytotoxicity in primary cultured rat hepatocytes
- Format: cell-based
- CONDITION_SUMMARY: 24 h treatment, cell morphology and LDH leakage, highest test concentration 300 μM; 300s = only slight cytotoxicity at 300 μM
Each entry below lists one item and its recorded LCC (lowest cytotoxic concentration) value.

Recorded results for 6 compounds are shown here.
- COMPOUND: "Cc1ccc2c(n1)c1c(n2CC(=O)O)CCC(N(C)c2ncc(Cl)cn2)C1 (stereo not drawn) [drawing 27]"
  TEST_RESULT: ">300 µM"
- COMPOUND: "CN(c1ncc(Cl)cn1)[C@H]1CCc2c(c3cc(F)ccc3n2CC(=O)O)C1"
  TEST_RESULT: "300 µM"
- COMPOUND: "COc1ccc2c(n1)c1c(n2CC(=O)O)CCC(N(C)c2ncc(Cl)cn2)C1 (stereo not drawn) [drawing 29]"
  TEST_RESULT: "300 s"
- COMPOUND: "CN(c1ncc(Cl)cn1)C1CCc2c(c3nc(F)ccc3n2CC(=O)O)C1 (stereo not drawn) [drawing 28]"
  TEST_RESULT: ">300 µM"
- COMPOUND: "CN(c1ncc(Cl)cn1)C1CCc2c(c3nc(C(F)(F)F)ccc3n2CC(=O)O)C1 (stereo not drawn) [drawing 30]"
  TEST_RESULT: "300 s"
- COMPOUND: "CN(c1ncc(Cl)cn1)[C@H]1CCc2c(c3nc(F)ccc3n2CC(=O)O)C1 [drawing 33]"
  TEST_RESULT: ">300 µM"

API: value(readout=LCC (lowest cytotoxic concentration), system=primary cultured rat hepatocytes) for record O=C(O)Cn1c2c(c3nc(F)ccc31)C[C@@H](Nc1ncc(Cl)cn1)CC2 [drawing 35]
>300 µM

Also CN(c1ncc(Cl)cn1)[C@H]1CCc2c(c3ncccc3n2CC(=O)O)C1 [drawing 31] , if possible.
>300 µM

Further, for CN(c1ncc(Cl)cn1)[C@H]1CCc2c(c3ncccc3n2CC(=O)O)C1 [drawing 32] ?
300 µM

* * *

- Test system: eosinophils (PGD2-induced shape change)
- ASSAY_DETAILS: Eosinophil shape change assay with human plasma
- Format: cell-based
- CONDITION_SUMMARY: human polymorphonuclear cells, 50% human plasma, activated with PGD2 100 nM, flow cytometry forward-scatter
MEASURE_NAME: pIC50
Please report pIC50 as the negative decimal logarithm of the molar concentration, giving only the number.

Examples from the recorded data:
- COMPOUND: "CN(c1ncc(Cl)cn1)C1CCc2c(c3nc(C(F)(F)F)ccc3n2CC(=O)O)C1 (centres unmarked) [Example 4]"
  ASSAY_SYSTEM: "eosinophils (PGD2-induced shape change)"
  TEST_RESULT: 6.38
- COMPOUND: "O=C(O)Cn1c2c(c3ncccc31)CC(Nc1ncc(Cl)cn1)CC2 (centres unmarked) [Example 5]"
  ASSAY_SYSTEM: "eosinophils (PGD2-induced shape change)"
  TEST_RESULT: 7.06
- COMPOUND: "COc1ccc2c(n1)c1c(n2CC(=O)O)CCC(N(C)c2ncc(Cl)cn2)C1 (centres unmarked) [Example 3]"
  ASSAY_SYSTEM: "eosinophils (PGD2-induced shape change)"
  TEST_RESULT: 6.83

I'd like to know its pIC50. The compound in question is CN(c1ncc(Cl)cn1)[C@H]1CCc2c(c3ncccc3n2CC(=O)O)C1 [Example 6]
8.24

// repeat for CN(c1ncc(Cl)cn1)[C@H]1CCc2c(c3nc(F)ccc3n2CC(=O)O)C1 [Example 7] and report
8.51

* * *

- Tested on: primary cultured rat hepatocytes
- ASSAY_DETAILS: In vitro cytotoxicity in primary cultured rat hepatocytes
- Format: cell-based
- CONDITION_SUMMARY: 24 h treatment, cell morphology and LDH leakage, highest test concentration 300 μM
Here the recorded NoEC (no effect concentration) is given for each entry.

Worked examples follow.
- COMPOUND: "O=C(O)Cn1c2c(c3nc(F)ccc31)C[C@@H](Nc1ncc(Cl)cn1)CC2 [drawing 35]"
  NoEC (no effect concentration): ">300 µM"
- COMPOUND: "CN(c1ncc(Cl)cn1)[C@H]1CCc2c(c3ncccc3n2CC(=O)O)C1 [drawing 31]"
  NoEC (no effect concentration): ">300 µM"
- COMPOUND: "CN(c1ncc(Cl)cn1)C1CCc2c(c3nc(F)ccc3n2CC(=O)O)C1 (centres unmarked) [drawing 28]"
  NoEC (no effect concentration): ">300 µM"
- COMPOUND: "Cc1ccc2c(n1)c1c(n2CC(=O)O)CCC(N(C)c2ncc(Cl)cn2)C1 (centres unmarked) [drawing 27]"
  NoEC (no effect concentration): ">300 µM"
- COMPOUND: "COc1ccc2c(n1)c1c(n2CC(=O)O)CCC(N(C)c2ncc(Cl)cn2)C1 (centres unmarked) [drawing 29]"
  NoEC (no effect concentration): "100 µM"
- COMPOUND: "CN(c1ncc(Cl)cn1)C1CCc2c(c3nc(C(F)(F)F)ccc3n2CC(=O)O)C1 (centres unmarked) [drawing 30]"
  NoEC (no effect concentration): "100 µM"
- COMPOUND: "CN(c1ncc(Cl)cn1)[C@H]1CCc2c(c3cc(F)ccc3n2CC(=O)O)C1"
  NoEC (no effect concentration): "30 µM"

Attention now shifts to the item below.
Kindly state the measured NoEC (no effect concentration) obtained for CN(c1ncc(Cl)cn1)[C@H]1CCc2c(c3nc(F)ccc3n2CC(=O)O)C1 [drawing 33] with primary cultured rat hepatocytes.
>300 µM

* * *

- Test system: eosinophils (PGD2-induced shape change)
- ASSAY_DETAILS: Eosinophil shape change assay with human plasma
- Format: cell-based
- CONDITION_SUMMARY: human polymorphonuclear cells, 50% human plasma, activated with PGD2 100 nM, flow cytometry forward-scatter
Entries and their IC50 values follow.
Respond numerically; units are nM and should not be typed.

- COMPOUND: "Cc1ccc2c(n1)c1c(n2CC(=O)O)CCC(N(C)c2ncc(Cl)cn2)C1 (stereo not drawn)"
  OUTPUT_UNIT: "nM"
  TEST_RESULT: 71
- COMPOUND: "O=C(O)Cn1c2c(c3nc(F)ccc31)C[C@@H](Nc1ncc(Cl)cn1)CC2"
  OUTPUT_UNIT: "nM"
  TEST_RESULT: 32

// next item, IC50 requested
Field request: IC50 | item: CN(c1ncc(Cl)cn1)C1CCc2c(c3nc(F)ccc3n2CC(=O)O)C1 (stereo not drawn)
4.2
